Test system: NCI-H226 lung
Test: NCI tumour cell line growth inhibition, 48 h; in the data active = GI50 below about 0.43 µM; inactive = the rest
Field 'call' accepts 1 (yes) (active), 0 (no) (inactive)

(Q) Returns: the outcome recorded for COc1cc(/C=C/C(=O)c2c(-c3ccc(F)cc3)nc3sc(C)nn23)cc(OC)c1OC in this assay.
(A) 0 (no)

* * *

// reported TGI per item
Tested on: COLO 205 colon
Assay: NCI tumour cell line growth inhibition, 48 h
Where a SMILES comes first, the peptide text is derived from it.

molecule | endpoint.result
C=CC1(c2ccc3ccccc3c2)OCC(CC)O1 (stereo not drawn) | > 100 µM
CCC(C)C(NC(=O)C(CC(C)C)NC(=O)CNC(=O)C(NC(=O)C1CCCN1C(=O)C(CC(C)C)NC(=O)C(N)Cc1ccccc1)C(C)CC)C(=O)NC(CC(C)C)C(N)=O (stereo not drawn) (H-FLPIGLIL-NH2; configuration not given here) | > 75 µM

Query molecule follows.
(Q) Provide the documented TGI with COLO 205 colon as the system for NC(=O)CCC(NC(=O)c1c2ccccc2nc2ccccc12)C(=O)O (stereo not drawn)
(A) > 100 µM

* * *

System: COLO 205 colon
Assay: NCI tumour cell line growth inhibition, 48 h
// reported TGI per item

(Q) Provide the documented TGI with COLO 205 colon as the system for CCNc1nnc(-c2ccccc2Nc2ccccc2-c2nnc(NCC)s2)s1
(A) > 53.9 µM

* * *

Test system: HL-60(TB) leukemia
Experiment: NCI tumour cell line growth inhibition, 48 h
recorded.endpoint: TGI

Below, 6 molecules whose answers are already recorded.
molecule | TGI
O=[N+]([O-])c1ccc2c(c1)C(c1ccccc1Cl)=Nc1c(n[nH]c1-c1cccnc1)N2 | > 25 µM
Nc1ncn([C@H]2C[C@H](OP(=O)(O)OC[C@H]3O[C@@H](n4cnc5c(=O)[nH]c(N)nc54)C[C@@H]3O)[C@@H](CO)O2)c(=O)n1 | > 100 µM
O=C(O)c1cn(C2CC2)c2cc(N3CCN(Cc4c(O)ccc5ccccc45)CC3)c(F)cc2c1=O | > 100 µM
O=CN1CCC23CC(O)CCC2C1Cc1cc(Oc2nnnn2-c2ccccc2)cc(O)c13 (stereo not given) | > 100 µM
Cc1ccc(C(=O)NCCN(C)C)c2nc3ccccc3cc12 | > 100 µM
O=C1NC(=NCCc2ccccn2)S/C1=C\c1ccc2ncccc2c1 | > 25 µM

(Q) Suppose we examine the molecule Cn1c(=O)c(Oc2ccc(F)cc2F)cc2cnc(NC3CCOCC3)nc21 ; what TGI value has been reported?
(A) > 25 µM

(Q) Please answer likewise for Cc1c2c(nn1-c1ccc(S(=O)(=O)NC(=S)NC(=O)c3ccccc3)cc1)-c1ccccc1CC2
(A) > 100 µM

(Q) Please answer likewise for CCOc1cccc(-c2cc(=O)c3cc4c(cc3[nH]2)OCO4)c1
(A) > 100 µM

(Q) Please answer likewise for O=c1[nH]c2c(c(=O)[nH]1)C(c1ccc([N+](=O)[O-])cc1)c1c([nH]c(=O)[nH]c1=O)O2
(A) > 100 µM

* * *

// reported TGI per item
Test system: DMS 114 small cell lung
Experiment: NCI tumour cell line growth inhibition, 48 h

Below, 3 compounds whose answers are already recorded.
compound | TGI
COc1ccc(/C=C/C(=O)c2sc(-c3cccnc3)nc2C)cc1 | > 100 µM
COC12OCCN(C)C1=CC(=O)C1(C)N=NCC12 (stereo unspecified) | > 100 µM
O=C(CSSCC(=O)Nc1ccc(Br)cc1)Nc1ccc(Br)cc1 | 28.2 µM

(Q) Suppose we examine the compound CC(C)c1ccc(/C=C/c2cc(C(=O)NNC(=O)NC3CCCCC3)nc(=S)[nH]2)cc1 ; what TGI value has been reported?
(A) > 100 µM

(Q) Please answer likewise for CCOC(=O)CN(c1ccccc1)c1nc(=[N+](C)C)ss1
(A) 27.7 µM

(Q) Please answer likewise for COc1cccc(C2SCc3nc4ccccc4n32)c1 (stereo unspecified)
(A) > 100 µM

* * *

System: HCT-116 colon
Experiment: NCI tumour cell line growth inhibition, 48 h
// reported TGI per item
Field format: number, assumed µM, no unit text.

record.smiles | system | TGI (µM)
COc1cc(/C=C/C(=O)c2c(-c3ccc(F)cc3)nc3sc(C)nn23)cc(OC)c1OC | HCT-116 colon | 3.07

Query compound follows.
(Q) Suppose we examine the compound Nc1cc(Cl)ccc1SSc1ccc(Cl)cc1N ; what TGI value has been reported?
(A) 21.7

* * *

Test system: SW-620 colon
Experiment: NCI tumour cell line growth inhibition, 48 h
recorded.endpoint: TGI

Below, 4 molecules whose answers are already recorded.
molecule | TGI
O=[N+]([O-])c1ccc2c(c1)C(c1ccccc1Cl)=Nc1c(n[nH]c1-c1cccnc1)N2 | > 25 µM
CC(C)Cn1cnc2c(Cl)nc3ccccc3c21 | > 100 µM
O=c1[nH]c2c(c(=O)[nH]1)C(c1ccc([N+](=O)[O-])cc1)c1c([nH]c(=O)[nH]c1=O)O2 | > 100 µM
CC(C)(C)[Si](C)(C)OCC1OC(n2ccc(=O)[nH]c2=O)C(O[Si](C)(C)C(C)(C)C)[C@]12O[C@@H]2CO (stereo partly drawn) | 58.7 µM

(Q) Suppose we examine the molecule CN(C)CCNC(=O)c1ccc2oc3cc4ccccc4c(=O)n3c2c1 ; what TGI value has been reported?
(A) > 100 µM

(Q) Please answer likewise for O=S(=O)(c1cc(Cl)ccc1Cl)N1CCN(c2cccc(Cl)c2)CC1
(A) > 100 µM

(Q) Please answer likewise for C=CCOC(=O)Nc1cccn([C@H](CC(C)C)C(=O)NCCC(C)C)c1=O
(A) > 100 µM

(Q) Please answer likewise for CCCN(CCC)c1ccc(C=O)c(C)c1
(A) > 100 µM

* * *

System: NCI-H23 lung
Test: NCI tumour cell line growth inhibition, 48 h
recorded.endpoint: TGI (µM)
Field format: number, assumed µM, no unit text.

Below, 5 molecules whose answers are already recorded.
molecule | TGI [µM]
COC(=O)c1oc2c(C(=O)/C=C/c3ccc(OC)cc3)c(OCCN3CCOCC3)ccc2c1C | 5.46
CC(=O)OCCCC#CC#Cc1cccc(=O)o1 | 33
CN(/N=C\c1ccnc2ccccc12)c1ccccc1 | 48.6
CC(C)C(Sc1nc(-c2ccccc2)c(-c2ccccc2)[nH]1)c1n[nH]c(=S)n1-c1ccccc1 (stereo unspecified) | 77.9
Cn1c2cn[nH]c(=O)c2c2ccc3ccccc3c21 | 67.2

(Q) Suppose we examine the molecule C/C=C(\C)C(=O)O[C@H]1C=CC(=O)O[C@H]1COC(=O)[C@H](C)O ; what TGI value has been reported?
(A) 36.9

(Q) Please answer likewise for S=C1CC(c2ccccc2)Sc2cc(Cl)ccc2N1 (stereo unspecified)
(A) 22.2

(Q) Please answer likewise for CNC(=O)c1cccc(C#Cc2cncnc2Nc2ccc(OCc3cccc(F)c3)c(Cl)c2)c1
(A) 24.2

(Q) Please answer likewise for COc1cc2nc3cc([N+](=O)[O-])ccc3c(NCCNCC(C)O)c2cc1OC (stereo unspecified)
(A) 3.07

(Q) Please answer likewise for Cc1ccsc1-c1ccc2c(c1)COC2(CCCN(C)C)c1ccc(F)cc1 (stereo unspecified)
(A) 18.1

* * *

// reported TGI per item
Tested on: SNB-75 CNS
Assay: NCI tumour cell line growth inhibition, 48 h

Below, 2 compounds whose answers are already recorded.
record.smiles | system | TGI
O=C(O)CCN(CCCN(CCC(=O)O)CCC(=O)O)CCC(=O)O | SNB-75 CNS | > 100 µM
CC(C)c1ccc(/C=C/c2cc(C(=O)NNC(=O)NC3CCCCC3)nc(=S)[nH]2)cc1 | SNB-75 CNS | > 100 µM

Query compound follows.
(Q) Suppose we examine the compound Cc1[nH]nc2ncc(C(=O)N3CCC[C@H]3c3ccc(Cl)cc3)cc12 ; what TGI value has been reported?
(A) > 100 µM

* * *

System: NCI/ADR-RES ovarian
Test: NCI tumour cell line growth inhibition, 48 h
recorded.endpoint: TGI

(Q) Suppose we examine the compound Cc1ccc(C(=O)Oc2ccc(/C=C3\CCC/C(=C\c4ccc(OC(=O)c5ccc(C)cc5)cc4)C3=O)cc2)cc1 ; what TGI value has been reported?
(A) > 100 µM

(Q) Please answer likewise for CN(C)CCOc1ccccc1NC1=C(Cl)C(=O)C(Nc2ccccc2OCCN(C)C)=C(Cl)C1=O
(A) > 100 µM

(Q) Please answer likewise for O=C1c2cc(F)ccc2-c2c1c1ccc([N+](=O)[O-])cc1c(=O)n2CCCBr
(A) 41.3 µM

* * *

// reported TGI per item
System: SK-OV-3 ovarian
Assay: NCI tumour cell line growth inhibition, 48 h

Below, 2 compounds whose answers are already recorded.
compound | endpoint.result
CCOC(=O)/C(=C\NC(C)(C)CO)c1nc2ccccc2[nH]1 | > 100 µM
O=C(O)CCN(CCCN(CCC(=O)O)CCC(=O)O)CCC(=O)O | > 100 µM

Query compound follows.
(Q) Suppose we examine the compound NC(CCCCNCc1ccccc1)C(=O)O (stereo not drawn) ; what TGI value has been reported?
(A) > 100 µM

// provenance: PubChem BioAssay (NCI)
